# IC50 values compiled below
# Tested on: COLO829 (B-Raf V600E) human melanoma cancer cell line
# protocol_summary: Inhibitory concentration against COLO829 cancer cell line
# Assay type: cell-based
# condition_summary: COLO-829; COLO829 human melanoma cell line, B-Raf V600E; read-out: Inhibitory Concentration (IC50) COLO829 (B-Raf V600E)
Output should be the measured figure followed by the unit it is expressed in.

// query Suppose we examine the compound C[C@@H]1/C=C\C(=O)[C@@H](O)[C@@H](O)COCc2cc(O)cc(O)c2C(=O)O[C@H]1C [IV] ; what IC50 value has been reported?
// result 0.31 µM

Could you now consider this next compound?
// query Suppose we examine the compound C[C@H]1C/C=C\C(=O)[C@@H](O)[C@@H](O)COCc2cc(O)cc(O)c2C(=O)O1 [Compound III] ; what IC50 value has been reported?
// result 0.36 µM
